Biological target: DNA repair protein RAD51 homolog 1 (Homo sapiens, UniProt Q06609)
Sequence (Q06609 whole entry): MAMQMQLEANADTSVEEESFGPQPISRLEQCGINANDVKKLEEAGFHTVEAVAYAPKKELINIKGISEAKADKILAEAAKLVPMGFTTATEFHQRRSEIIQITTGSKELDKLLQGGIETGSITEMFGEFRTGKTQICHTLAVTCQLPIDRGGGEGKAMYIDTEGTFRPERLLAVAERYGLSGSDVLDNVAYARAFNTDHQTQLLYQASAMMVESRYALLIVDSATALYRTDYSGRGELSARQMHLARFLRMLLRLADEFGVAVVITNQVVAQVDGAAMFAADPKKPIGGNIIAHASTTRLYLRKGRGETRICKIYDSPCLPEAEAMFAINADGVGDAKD
pKd: −log10 of the molar value. Residues, ends and D or L forms follow the SMILES beside them.
// reported pKd for each item listed

molecule: CC[C@H](C)[C@H](NC(=O)[C@H](CCCCN)NC(=O)[C@@H](NC(=O)[C@H](CCCCN)NC(=O)[C@H](CCCCN)NC(=O)CNC(=O)[C@H](CO)NC(=O)[C@H](C)NC(=O)[C@@H](NC(=O)[C@H](Cc1c[nH]cn1)NC(=O)[C@H](Cc1ccccc1)NC(=O)CNC(=O)[C@H](CC(C)C)NC(=O)[C@H](CC(C)C)NC(C)=O)[C@@H](C)O)C(C)C)C(=O)N[C@@H](C)C(=O)N[C@@H](CCCCN)C(N)=O (Ac-LLGFHTASGKKVKIAK-NH2)
pKd: 6.22
//
molecule: CC[C@](C)(NC(=O)[C@@H](NC(=O)[C@H](CC(C)C)NC(=O)[C@H](Cc1c[nH]c2ccccc12)NC(=O)[C@@H](CO)NC(C)=O)[C@@H](C)O)C(N)=O
pKd: 8.03
//
molecule: CC(=O)N[C@H](CO)C(=O)N[C@@H](Cc1ccccc1)C(=O)N[C@@H](CC(C)C)C(=O)N[C@H](C(=O)N[C@@H](C)C(N)=O)C(C)C
pKd: 6.84

---

Assay: Inhibition of cell proliferation of human MCF-10A cells incubated for 72 hrs by MTT assay
Format: toxicity, cell-based
measured-parameter: IC50 at 72 h

record-smiles: CC[C@](C)(NC(=O)[C@@H](NC(=O)[C@H](CC(C)C)NC(=O)[C@H](Cc1c[nH]c2ccccc12)NC(=O)[C@@H](CO)NC(C)=O)[C@@H](C)O)C(N)=O
endpoint-value: > 10 µM

---

Assay: Half life in BALB/c mouse at 10 mg/kg, iv measured for 0.25 to 24 hrs by LC-MS/MS analysis
Format: ADME, organism-based
Conditions: in vivo, time 0.25-24 hrs

record-smiles: CC[C@](C)(NC(=O)[C@@H](NC(=O)[C@H](CC(C)C)NC(=O)[C@H](Cc1c[nH]c2ccccc12)NC(=O)[C@@H](CO)NC(C)=O)[C@@H](C)O)C(N)=O
unit-tag: h
half-life: 7.38

---

Experiment: Inhibition of cell proliferation of human HK-2 cells incubated for 72 hrs by MTT assay
Type: toxicity, cell-based
measured-parameter: IC50 at 72 h

record-smiles: CC[C@](C)(NC(=O)[C@@H](NC(=O)[C@H](CC(C)C)NC(=O)[C@H](Cc1c[nH]c2ccccc12)NC(=O)[C@@H](CO)NC(C)=O)[C@@H](C)O)C(N)=O
endpoint-value: > 10 µM

---

Assay: AUC in BALB/c mouse at 10 mg/kg, iv measured for 0.25 to 24 hrs by LC-MS/MS analysis
Assay type: ADME, organism-based
Conditions: in vivo, time 0.25-24 hrs
measured-parameter: AUC (ng·h/mL)

record-smiles: CC[C@](C)(NC(=O)[C@@H](NC(=O)[C@H](CC(C)C)NC(=O)[C@H](Cc1c[nH]c2ccccc12)NC(=O)[C@@H](CO)NC(C)=O)[C@@H](C)O)C(N)=O
measured-parameter: AUC
endpoint-value: 13000

Provenance of the data: ChEMBL document CHEMBL6114976
